- test_description: Cmax in CD1 mouse at 30 mg/kg, po after 0.25 to 24 hrs
- Assay type: ADME, organism-based
- Parameters: dose 30 mg/kg, route oral
- condition_context: in vivo
observed_property: Cmax (ng/mL)
Please state the figure in ng/mL; there is no need to write the unit.

Given the compound COC(=O)N[C@H](C(=O)N1CCC[C@H]1c1nc2cc([C@H]3CC[C@H](c4cc5nc([C@@H]6CCCN6C(=O)[C@@H](NC(=O)OC)C(C)C)[nH]c5cc4F)N3c3cc(F)c(N4CCCCC4)c(F)c3)c(F)cc2[nH]1)C(C)C , write its reported Cmax.
3390

---

Ratio EC50 reference
- System: Hepatitis C virus (isolate H77)
- test_description: Resistance ratio of EC50 for Hepatitis C virus genotype 1a H77 replicon NS5A M28T mutant to EC50 for Hepatitis C virus genotype 1a H77 replicon NS5A
The answer should be written as a number, with no unit following it.

[[record]]
structure_string = "COC(=O)N[C@H](C(=O)N1CCC[C@H]1c1nc2ccc([C@H]3CC[C@H](c4ccc5nc([C@@H]6CCCN6C(=O)[C@@H](NC(=O)OC)C(C)C)[nH]c5c4)N3c3ccc(C(C)(C)C)cc3)cc2[nH]1)C(C)C"
endpoint_value = 4

[[record]]
structure_string = "COC(=O)N[C@H](C(=O)N1CCC[C@H]1c1nc2cc([C@H]3CC[C@H](c4cc5nc([C@@H]6CCCN6C(=O)[C@@H](NC(=O)OC)C(C)C)[nH]c5cc4F)N3c3ccc(C(C)(C)C)cc3)c(F)cc2[nH]1)C(C)C"
endpoint_value = 2

[[record]]
structure_string = "COC(=O)N[C@H](C(=O)N1CCC[C@H]1c1nc2cc([C@H]3CC[C@H](c4cc5nc([C@@H]6CCCN6C(=O)[C@@H](NC(=O)OC)C(C)C)[nH]c5cc4F)N3c3cc(F)c(N4CCCCC4)c(F)c3)c(F)cc2[nH]1)C(C)C"
endpoint_value = 2


Fill in Ratio EC50 for record COC(=O)N[C@H](C(=O)N1CCC[C@H]1c1nc2cc([C@H]3CC[C@H](c4ccc5[nH]c([C@@H]6CCCN6C(=O)[C@@H](NC(=O)OC)C(C)C)nc5c4)N3c3cc(F)c(N4CCCCC4)c(F)c3)ccc2[nH]1)C(C)C
3

---

- Tested on: Hepatitis C virus (isolate H77)
- test_description: Resistance ratio of EC50 for Hepatitis C virus genotype 1a H77 replicon NS5A Y93H mutant to EC50 for Hepatitis C virus genotype 1a H77 replicon NS5A
Each item that follows carries a reported Ratio EC50.
Just the number, please.

[[record]]
structure_string = "COC(=O)N[C@H](C(=O)N1CCC[C@H]1c1nc2cc([C@H]3CC[C@H](c4cc5nc([C@@H]6CCCN6C(=O)[C@@H](NC(=O)OC)C(C)C)[nH]c5cc4F)N3c3ccc(C(C)(C)C)cc3)c(F)cc2[nH]1)C(C)C"
tested_target = "Hepatitis C virus (isolate H77)"
observed_property = "Ratio EC50"
endpoint_value = 30

[[record]]
structure_string = "COC(=O)N[C@H](C(=O)N1CCC[C@H]1c1nc2cc([C@H]3CC[C@H](c4ccc5[nH]c([C@@H]6CCCN6C(=O)[C@@H](NC(=O)OC)C(C)C)nc5c4)N3c3cc(F)c(N4CCCCC4)c(F)c3)ccc2[nH]1)C(C)C"
tested_target = "Hepatitis C virus (isolate H77)"
observed_property = "Ratio EC50"
endpoint_value = 163

[[record]]
structure_string = "COC(=O)N[C@H](C(=O)N1CCC[C@H]1c1nc2cc([C@H]3CC[C@H](c4cc5nc([C@@H]6CCCN6C(=O)[C@@H](NC(=O)OC)C(C)C)[nH]c5cc4F)N3c3cc(F)c(N4CCCCC4)c(F)c3)c(F)cc2[nH]1)C(C)C"
tested_target = "Hepatitis C virus (isolate H77)"
observed_property = "Ratio EC50"
endpoint_value = 27


Entry COC(=O)N[C@H](C(=O)N1CCC[C@H]1c1nc2ccc([C@H]3CC[C@H](c4ccc5nc([C@@H]6CCCN6C(=O)[C@@H](NC(=O)OC)C(C)C)[nH]c5c4)N3c3ccc(C(C)(C)C)cc3)cc2[nH]1)C(C)C needs its Ratio EC50 filled in; supply it.
239

---

- test_description: Inhibition of Hepatitis C virus genotype 1b Con1 replicon NS5A transfected in human HuH7 cells assessed as decrease in replication of viral replicon after 4 days by luciferase reporter gene assay
- Assay type: cell-based, Hepatitis C virus (isolate Con1)
- condition_context: Huh-7, 96 h
observed_property: pEC50
Note: pEC50 values are expressed as the negative base-10 logarithm of concentration in M.

Retrieve pEC50 measured for COC(=O)N[C@H](C(=O)N1CCC[C@H]1c1nc2cc([C@H]3CC[C@H](c4cc5nc([C@@H]6CCCN6C(=O)[C@@H](NC(=O)OC)C(C)C)[nH]c5cc4F)N3c3cc(F)c(N4CCCCC4)c(F)c3)c(F)cc2[nH]1)C(C)C and print it.
11.15

Give pEC50 for the following compound: COC(=O)N[C@H](C(=O)N1CCC[C@H]1c1nc2c(F)c(-c3ccc(-c4c(F)cc5[nH]c([C@@H]6CCCN6C(=O)[C@@H](NC(=O)OC)C(C)C)nc5c4F)cc3)c(F)cc2[nH]1)C(C)C
10.80

---

- test_description: AUC in CD1 mouse at 15 mg/kg, po after 0.25 to 24 hrs
- Assay type: ADME, organism-based
- Design: time lower 0.25 hr, dose 15 mg/kg, time upper 24 hr, route oral
- condition_context: in vivo
observed_property: AUC

[[record]]
structure_string = "COC(=O)N[C@H](C(=O)N1CCC[C@H]1c1nc2cc([C@H]3CC[C@H](c4cc5[nH]c([C@@H]6CCCN6C(=O)[C@@H](NC(=O)OC)C(C)C)nc5cc4F)N3c3ccc(C(C)(C)C)cc3)c(F)cc2[nH]1)C(C)C"
endpoint_value = "36200 ng·h/mL"


Next:
Query AUC for COC(=O)N[C@H](C(=O)N1CCC[C@H]1c1nc2cc([C@H]3CC[C@H](c4ccc5[nH]c([C@@H]6CCCN6C(=O)[C@@H](NC(=O)OC)C(C)C)nc5c4)N3c3cc(F)c(N4CCCCC4)c(F)c3)ccc2[nH]1)C(C)C
9250 ng·h/mL

---

- test_description: Cmax in beagle dog at 2.5 mg/kg, po administered via gavage after 0.25 to 24 hrs
- Type: ADME, organism-based, Canis lupus familiaris
- Design: dose 2.5 mg/kg, route oral
- condition_context: in vivo
observed_property: Cmax (ng/mL)
Your answer should be a plain number; it is taken to be in ng/mL.

[[record]]
structure_string = "COC(=O)N[C@H](C(=O)N1CCC[C@H]1c1nc2cc([C@H]3CC[C@H](c4ccc5[nH]c([C@@H]6CCCN6C(=O)[C@@H](NC(=O)OC)C(C)C)nc5c4)N3c3cc(F)c(N4CCCCC4)c(F)c3)ccc2[nH]1)C(C)C"
endpoint_value = 200


// below: Cmax requested for another compound
Give recorded Cmax. COC(=O)N[C@H](C(=O)N1CCC[C@H]1c1nc2cc([C@H]3CC[C@H](c4cc5nc([C@@H]6CCCN6C(=O)[C@@H](NC(=O)OC)C(C)C)[nH]c5cc4F)N3c3cc(F)c(N4CCCCC4)c(F)c3)c(F)cc2[nH]1)C(C)C
1380

---

- test_description: Inhibition of Hepatitis C virus genotype 1b Con1 replicon NS5A transfected in human HuH7 cells assessed as decrease in replication of viral replicon after 4 days by luciferase reporter gene assay
- Format: cell-based, Hepatitis C virus (isolate Con1)
- condition_context: Huh-7, 96 h
# key: entry, value: EC50
// note: answer is a bare numeric in nM

Some compounds with recorded EC50:
[[record]]
structure_string = "COC(=O)N[C@H](C(=O)N1CCC[C@H]1c1nc2ccc(-c3ccc(-c4ccc5nc([C@@H]6CCCN6C(=O)[C@@H](NC(=O)OC)C(C)C)[nH]c5c4)cc3)cc2[nH]1)C(C)C"
endpoint_value = 0.022

[[record]]
structure_string = "COC(=O)N[C@H](C(=O)N1CCC[C@H]1c1nc2cc(-c3ccc(-c4cc(OC)c5[nH]c([C@@H]6CCCN6C(=O)[C@@H](NC(=O)OC)C(C)C)nc5c4)cc3)cc(OC)c2[nH]1)C(C)C"
endpoint_value = 0.095

[[record]]
structure_string = "COC(=O)N[C@H](C(=O)N1CCC[C@H]1c1nc2c(F)c(-c3ccc(-c4ccc5[nH]c([C@@H]6CCCN6C(=O)[C@@H](NC(=O)OC)C(C)C)nc5c4F)cc3)ccc2[nH]1)C(C)C"
endpoint_value = 0.013


Supply recorded EC50 for COC(=O)N[C@H](C(=O)N1CCC[C@H]1c1nc2cc(-c3ccc(-c4cc5nc([C@@H]6CCCN6C(=O)[C@@H](NC(=O)OC)C(C)C)[nH]c5cc4C(F)(F)F)cc3)c(C(F)(F)F)cc2[nH]1)C(C)C here.
0.006

Return value of EC50 for input COC(=O)N[C@H](C(=O)N1CCC[C@H]1c1nc2ccc([C@H]3CC[C@H](c4ccc5nc([C@@H]6CCCN6C(=O)[C@@H](NC(=O)OC)C(C)C)[nH]c5c4)N3c3ccc(C(C)(C)C)cc3)cc2[nH]1)C(C)C , no commentary.
0.014
